Value source: patent US10364245B2

Target: p38 alpha (Homo sapiens, UniProt Q16539)
Sequence (Q16539 whole entry): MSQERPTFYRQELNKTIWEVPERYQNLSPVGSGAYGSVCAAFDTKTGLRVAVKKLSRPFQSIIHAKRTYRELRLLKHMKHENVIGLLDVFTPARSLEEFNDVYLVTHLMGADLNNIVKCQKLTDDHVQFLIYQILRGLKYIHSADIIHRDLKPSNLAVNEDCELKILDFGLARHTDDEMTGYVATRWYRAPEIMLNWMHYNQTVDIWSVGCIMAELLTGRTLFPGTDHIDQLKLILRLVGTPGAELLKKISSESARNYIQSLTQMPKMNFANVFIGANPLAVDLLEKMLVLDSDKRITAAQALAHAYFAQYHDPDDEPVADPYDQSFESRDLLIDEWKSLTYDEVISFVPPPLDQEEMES
Test: P38 alpha enzyme inhibition assay (Alphascreen kinase activity assay)
Conditions: 100 pM p38 alpha, 2 hours preincubation at 25° C., 250 μM ATP, ATF-2 fusion protein; read-out: p38α inhibition
Method: P38 Alpha Enzyme Inhibition Assay The inhibitory activity of compounds was determined using an Alphascreen® (Perkin Elmer) based kinase activity assay. […] Detection was performed by measuring luminescence following the addition of Alphascreen Donor beads (Perkin Elmer 6765300) and Protein A Alphascreen Acceptor beads (Perkin Elmer 6760137), both at a final concentration of 20 ug/ml. IC50 values were determined from concentration-response curves.
Counter-ions that a name gives are not always drawn.
READOUT_KIND: IC50

# COMPOUND, TESTED_SYSTEM, IC50
measured = [
    ("COCC(C)(C)c1nnc2ccc(O[C@@H]3CC[C@H](NC(=O)Nc4cc(C(C)(C)C)nc(C(=O)NCC5(N(C)C)CCCC5)n4)c4ccccc43)cn12", "p38 alpha (Homo sapiens, UniProt Q16539)", "< 1 nM"),
    ("CN1CCC[C@@]1(C)c1nnc2ccc(O[C@@H]3CC[C@H](NC(=O)Nc4cc(C(C)(C)C)ncn4)c4ccccc43)cn12", "p38 alpha (Homo sapiens, UniProt Q16539)", "< 1 nM"),
    ("CN1CCN(C(C)(C)CNC(=O)c2nc(NC(=O)N[C@H]3CC[C@@H](Oc4ccc5nnc(C(C)(C)C)n5c4)c4ccccc43)cc(C(C)(C)C)n2)CC1", "p38 alpha (Homo sapiens, UniProt Q16539)", "< 1 nM"),
    ("CSc1nc(NC(=O)N[C@H]2CC[C@@H](Oc3ccc4nnc([C@]5(C)CCCN5C)n4c3)c3ccccc32)cc(C(C)(C)C)n1", "p38 alpha (Homo sapiens, UniProt Q16539)", "1 to 10 nM"),
    ("Cc1nc(NC(=O)N[C@H]2CC[C@@H](Oc3ccc4nnc([C@]5(C)CCCN5C)n4c3)c3ccccc32)cc(C(C)(C)C)n1", "p38 alpha (Homo sapiens, UniProt Q16539)", "< 1 nM"),
]

Exercise: Recorded IC50 of CCN(CC)c1nnc2ccc(O[C@@H]3CC[C@H](NC(=O)Nc4cc(C(C)(C)C)nc(C(=O)NCCN(C)C)n4)c4ccccc43)cn12 , please.
Solution: < 1 nM

Exercise: Recorded IC50 of C[C@@H]1CCC[C@H](C)N1c1nnc2ccc(O[C@@H]3CC[C@H](NC(=O)Nc4cc(C(C)(C)C)nc(C(=O)NCCN5CCOCC5)n4)c4ccccc43)cn12 , please.
Solution: < 1 nM

Exercise: Recorded IC50 of CN1CCC[C@]1(C)c1nnc2ccc(O[C@@H]3CC[C@H](NC(=O)Nc4cc(C(C)(C)C)cc(C#N)n4)c4ccccc43)cn12 , please.
Solution: 1 to 10 nM

Exercise: Recorded IC50 of CCC(CC)c1nnc2ccc(O[C@@H]3CC[C@H](NC(=O)Nc4cc(C(C)(C)C)nc(C(=O)NCC(C)(C)N5CCN(C)CC5)n4)c4ccccc43)cn12 [Example 173, formate salt] , please.
Solution: < 1 nM

Exercise: Recorded IC50 of CC[C@H](C)c1nnc2ccc(O[C@@H]3CC[C@H](NC(=O)Nc4cc(C(C)(C)C)nc(C(=O)NCC(C)(C)N(C)C)n4)c4ccccc43)cn12 , please.
Solution: < 1 nM

Exercise: Recorded IC50 of CC[C@H](C)c1nnc2ccc(O[C@@H]3CC[C@H](NC(=O)Nc4cc(C(C)(C)C)nc(C(=O)NCCN(C)C)n4)c4ccccc43)cn12 , please.
Solution: < 1 nM

Exercise: Recorded IC50 of CC(C)(C)c1cc(NC(=O)N[C@H]2CC[C@@H](Oc3ccc4nnc(C(C)(C)C)n4c3)c3ccccc32)nc(C(=O)NCCN2CCC(O)CC2)c1 [Example 211, formate salt] , please.
Solution: < 1 nM
